Test system: Staphylococcus aureus 447
Assay: broth micro-dilution MIC
Format: cell-based
# MIC per entry

Molecule: CCOC(c1ccccc1)c1ccc(CNC2(C)CC(OC3C(Oc4c5cc6cc4Oc4ccc(cc4Cl)C(OC4CC(C)(N)C(O)C(C)O4)C4NC(=O)C(NC(=O)C6NC(=O)C(CC(N)=O)NC(=O)C(NC(=O)C(CC(C)C)NC)C(O)c6ccc(c(Cl)c6)O5)c5ccc(O)c(c5)-c5c(O)cc(O)cc5C(C(=O)O)NC4=O)OC(CO)C(O)C3O)OC(C)C2O)cc1 (stereo not drawn)
Unit Info: µg/mL
Readout Relation: =
MIC: 1

Molecule: CNC(CC(C)C)C(=O)NC1C(=O)NC(CC(N)=O)C(=O)NC2C(=O)NC3C(=O)NC(C(=O)NC(C(=O)O)c4cc(O)cc(O)c4-c4cc3ccc4O)C(OC3CC(C)(N)C(O)C(C)O3)c3ccc(c(Cl)c3)Oc3cc2cc(c3OC2OC(CO)C(O)C(O)C2OC2CC(C)(NCc3ccc(NC(=O)c4ccc(F)cc4)cc3)C(O)C(C)O2)Oc2ccc(cc2Cl)C1O (stereo not drawn)
Unit Info: µg/mL
Readout Relation: ≤
MIC: 0.06

Molecule: CNC(CC(C)C)C(=O)NC1C(=O)NC(CC(N)=O)C(=O)NC2C(=O)NC3C(=O)NC(C(=O)NC(C(=O)O)c4cc(O)cc(O)c4-c4cc3ccc4O)C(OC3CC(C)(N)C(O)C(C)O3)c3ccc(c(Cl)c3)Oc3cc2cc(c3OC2OC(CO)C(O)C(O)C2OC2CC(C)(NCCCCC3CCCCC3)C(O)C(C)O2)Oc2ccc(cc2Cl)C1O (stereo not drawn)
Unit Info: µg/mL
Readout Relation: =
MIC: 0.5

Molecule: CNC(CC(C)C)C(=O)NC1C(=O)NC(CC(N)=O)C(=O)NC2C(=O)NC3C(=O)NC(C(=O)NC(C(=O)O)c4cc(O)cc(O)c4-c4cc3ccc4O)C(OC3CC(C)(N)C(O)C(C)O3)c3ccc(c(Cl)c3)Oc3cc2cc(c3OC2OC(CO)C(O)C(O)C2OC2CC(C)(NCc3ccc(-c4ccc(-c5ccccc5)cc4)cc3)C(O)C(C)O2)Oc2ccc(cc2Cl)C1O (stereo not drawn)
Unit Info: µg/mL
Readout Relation: =
MIC: 2

Molecule: CNC(CC(C)C)C(=O)NC1C(=O)NC(CC(N)=O)C(=O)NC2C(=O)NC3C(=O)NC(C(=O)NC(C(=O)O)c4cc(O)cc(O)c4-c4cc3ccc4O)C(OC3CC(C)(N)C(O)C(C)O3)c3ccc(c(Cl)c3)Oc3cc2cc(c3OC2OC(CO)C(O)C(O)C2OC2CC(C)(NCc3cccc4ccccc34)C(O)C(C)O2)Oc2ccc(cc2Cl)C1O (stereo not drawn)
Unit Info: µg/mL
Readout Relation: ≤
MIC: 0.06

Molecule: CC(C)CC(C(=O)NC1C(=O)NC(CC(N)=O)C(=O)NC2C(=O)NC3C(=O)NC(C(=O)NC(C(=O)O)c4cc(O)cc(O)c4-c4cc3ccc4O)C(OC3CC(C)(N)C(O)C(C)O3)c3ccc(c(Cl)c3)Oc3cc2cc(c3OC2OC(CO)C(O)C(O)C2OC2CC(C)(N)C(O)C(C)O2)Oc2ccc(cc2Cl)C1O)N(C)Cc1ccc(-c2ccc(Cl)cc2)cc1.O=C(O)C(F)(F)F (stereo not drawn)
Unit Info: µg/mL
Readout Relation: ≤
MIC: 0.06

Molecule: CNC(CC(C)C)C(=O)NC1C(=O)NC(CC(N)=O)C(=O)NC2C(=O)NC3C(=O)NC(C(=O)NC(C(=O)O)c4cc(O)cc(O)c4-c4cc3ccc4O)C(OC3CC(C)(N)C(O)C(C)O3)c3ccc(c(Cl)c3)Oc3cc2cc(c3OC2OC(CO)C(O)C(O)C2OC2CC(C)(NCc3ccc(I)s3)C(O)C(C)O2)Oc2ccc(cc2Cl)C1O (stereo not drawn)
Unit Info: µg/mL
Readout Relation: =
MIC: 1

Molecule: CC#CCCCCCCCCCCNC1(C)CC(OC2C(Oc3c4cc5cc3Oc3ccc(cc3Cl)C(OC3CC(C)(N)C(O)C(C)O3)C3NC(=O)C(NC(=O)C5NC(=O)C(CC(N)=O)NC(=O)C(NC(=O)C(CC(C)C)NC)C(O)c5ccc(c(Cl)c5)O4)c4ccc(O)c(c4)-c4c(O)cc(O)cc4C(C(=O)O)NC3=O)OC(CO)C(O)C2O)OC(C)C1O (stereo not drawn)
Unit Info: µg/mL
Readout Relation: =
MIC: 1

Molecule: CNC(CC(C)C)C(=O)NC1C(=O)NC(CC(N)=O)C(=O)NC2C(=O)NC3C(=O)NC(C(=O)NC(C(=O)O)c4cc(O)cc(O)c4-c4cc3ccc4O)C(OC3CC(C)(N)C(O)C(C)O3)c3ccc(c(Cl)c3)Oc3cc2cc(c3OC2OC(CO)C(O)C(O)C2OC2CC(C)(NCc3ccc(N4CCC(C)CC4)cc3)C(O)C(C)O2)Oc2ccc(cc2Cl)C1O (stereo not drawn)
Unit Info: µg/mL
Readout Relation: =
MIC: 1

Molecule: CNC(CC(C)C)C(=O)NC1C(=O)NC(CC(N)=O)C(=O)NC2C(=O)NC3C(=O)NC(C(=O)NC(C(=O)O)c4cc(O)cc(O)c4-c4cc3ccc4O)C(OC3CC(C)(N)C(O)C(C)O3)c3ccc(c(Cl)c3)Oc3cc2cc(c3OC2OC(CO)C(O)C(O)C2OC2CC(C)(NCc3ccc(Oc4ccccc4[N+](=O)[O-])cc3)C(O)C(C)O2)Oc2ccc(cc2Cl)C1O (stereo not drawn)
Unit Info: µg/mL
Readout Relation: =
MIC: 0.5

Molecule: CNC(CC(C)C)C(=O)NC1C(=O)NC(CC(N)=O)C(=O)NC2C(=O)NC3C(=O)NC(C(=O)NC(C(=O)O)c4cc(O)cc(O)c4-c4cc3ccc4O)C(OC3CC(C)(N)C(O)C(C)O3)c3ccc(c(Cl)c3)Oc3cc2cc(c3OC2OC(CO)C(O)C(O)C2OC2CC(C)(NCc3ccc(-c4ccccn4)cc3)C(O)C(C)O2)Oc2ccc(cc2Cl)C1O (stereo not drawn)
Unit Info: µg/mL
Readout Relation: =
MIC: 4

Molecule: CNC(CC(C)C)C(=O)NC1C(=O)NC(CC(N)=O)C(=O)NC2C(=O)NC3C(=O)NC(C(=O)NC(C(=O)O)c4cc(O)cc(O)c4-c4cc3ccc4O)C(OC3CC(C)(N)C(O)C(C)O3)c3ccc(c(Cl)c3)Oc3cc2cc(c3OC2OC(CO)C(O)C(O)C2OC2CC(C)(NCc3ccc(OC)c(OCC4CCCCC4)c3)C(O)C(C)O2)Oc2ccc(cc2Cl)C1O (stereo not drawn)
Unit Info: µg/mL
Readout Relation: =
MIC: 2
